Origin of the recorded values: ChEMBL document CHEMBL3399979

studyTarget: Tyrosine-protein kinase BTK (Homo sapiens, UniProt Q06187)
Sequence (Q06187 whole entry): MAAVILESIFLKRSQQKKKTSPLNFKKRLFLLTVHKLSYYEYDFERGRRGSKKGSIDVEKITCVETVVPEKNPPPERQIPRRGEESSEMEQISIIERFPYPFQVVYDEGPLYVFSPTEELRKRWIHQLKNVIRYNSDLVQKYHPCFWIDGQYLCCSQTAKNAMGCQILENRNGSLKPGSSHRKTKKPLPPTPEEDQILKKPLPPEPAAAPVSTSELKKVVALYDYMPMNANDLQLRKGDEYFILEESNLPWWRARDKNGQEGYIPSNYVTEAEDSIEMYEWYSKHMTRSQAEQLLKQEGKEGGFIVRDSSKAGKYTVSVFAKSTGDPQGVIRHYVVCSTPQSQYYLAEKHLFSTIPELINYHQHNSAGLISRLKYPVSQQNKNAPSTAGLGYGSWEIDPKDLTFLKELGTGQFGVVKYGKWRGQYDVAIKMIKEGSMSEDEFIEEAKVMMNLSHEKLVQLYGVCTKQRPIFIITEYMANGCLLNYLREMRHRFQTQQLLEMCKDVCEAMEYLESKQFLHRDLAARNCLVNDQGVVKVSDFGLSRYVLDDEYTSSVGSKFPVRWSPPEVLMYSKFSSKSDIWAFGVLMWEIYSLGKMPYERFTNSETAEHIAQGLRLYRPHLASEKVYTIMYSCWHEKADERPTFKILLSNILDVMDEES
method: Inhibition of BTK (unknown origin) after 1 hr by TR-FRET analysis
measuredParameter: pIC50
Here pIC50 is given on a logarithmic scale as minus log10 of the concentration in mol/L.

Query: Name the reported pIC50 value associated with the compound CN(C)S(=O)(=O)N1CC=C(c2cc3c(-c4cccc(-n5ccc6cc(C7CC7)cc(F)c6c5=O)c4CO)ncnc3[nH]2)CC1
Reply: 7.78

---
Query: If you can, please state the reported pIC50 value of O=c1c2c(F)cc(C3CC3)cc2ccn1-c1cccc(-c2ncnc3[nH]c(-c4ccc(CN5CCOCC5)cc4)cc23)c1CO .
Reply: 7.20

Query: Please give the result for O=c1c2c(F)cc(C3CC3)cc2ccn1-c1cccc(-c2ncnc3[nH]c(C4=CCN(c5ncccn5)CC4)cc23)c1CO too.
Reply: 7.34

Query: Check CN(C)C(=O)c1cc2c(-c3cccc(-n4ccc5cc(C6CC6)cc(F)c5c4=O)c3CO)ncnc2[nH]1 too.
Reply: 5.87

Query: Next compound: O=c1c2c(F)cc(C3CC3)cc2ccn1-c1cccc(-c2ncnc3[nH]c(C4=CCN(C5COC5)CC4)cc23)c1CO
Reply: 7.61

Query: Next: COc1ccc(-c2cc3c(-c4cccc(-n5ccc6cc(C7CC7)cc(F)c6c5=O)c4CO)ncnc3[nH]2)cn1
Reply: 6.70

----------
studyTarget: Tyrosine-protein kinase BTK (Homo sapiens, UniProt Q06187)
method: Inhibition of BTK in human Ramos cells after 20 mins by fluorescence assay
Format: cell-based
measuredParameter: log10(IC50) (log10 of the value in nM)
Scale type: logarithmic (base 10). Underlying IC50 unit: nM.

Consider the worked cases shown below.
Query: Would you mind telling me what log10(IC50) value was observed for CC(=O)c1ccc(-c2cc3c(-c4cccc(-n5ccc6cc(C7CC7)cc(F)c6c5=O)c4CO)ncnc3[nH]2)cc1 ?
Reply: 1.69

Query: Record: O=c1c2c(F)cc(C3CC3)cc2ccn1-c1cccc(-c2ncnc3[nH]c(-c4ccc(O)cc4)cc23)c1CO
Reply: 2.32

Query: Request: O=C(c1ccc(-c2cc3c(-c4cccc(-n5ccc6cc(C7CC7)cc(F)c6c5=O)c4CO)ncnc3[nH]2)cc1)N1CCCCC1
Reply: 1.81

Query: Query O=c1c2c(F)cc(C3CC3)cc2ccn1-c1cccc(-c2ncnc3[nH]c(C4=CCCCC4)cc23)c1CO next
Reply: 2.54

Query: Same again, this time with CN(C)C(=O)c1cc2c(-c3cccc(-n4ccc5cc(C6CC6)cc(F)c5c4=O)c3CO)ncnc2[nH]1
Reply: 3.19

Others:
Query: // lookup log10(IC50) for CS(=O)(=O)N1CC=C(c2cc3c(-c4cccc(-n5ccc6cc(C7CC7)cc(F)c6c5=O)c4CO)ncnc3[nH]2)CC1
Reply: 0.90

Query: # iterate: CN(C)Cc1ccc(-c2cc3c(-c4cccc(-n5ccc6cc(C7CC7)cc(F)c6c5=O)c4CO)ncnc3[nH]2)cc1
Reply: 1.52

Query: // repeat for Cn1ccc(-c2cc3c(-c4cccc(-n5ccc6cc(C7CC7)cc(F)c6c5=O)c4CO)ncnc3[nH]2)n1 and report
Reply: 1.58

Query: Same read-out for CN(C)C(=O)N1CCC(c2cc3c(-c4cccc(-n5ccc6cc(C7CC7)cc(F)c6c5=O)c4CO)ncnc3[nH]2)CC1 ?
Reply: 3.22

----------
Recorded measurements of pIC50, one per entry
studyTarget: Tyrosine-protein kinase BTK (Homo sapiens, UniProt Q06187)
method: Inhibition of BTK (unknown origin) after 1 hr by TR-FRET analysis
Lab note: report pIC50 as minus log10 of the concentration in molar units, number only.

Query: What does the data say about its pIC50? Entry: CC(=O)c1ccc(-c2cc3c(-c4cccc(-n5ccc6cc(C7CC7)cc(F)c6c5=O)c4CO)ncnc3[nH]2)cc1
Reply: 7.38

Query: Same question for CN(C)Cc1ccc(-c2cc3c(-c4cccc(-n5ccc6cc(C7CC7)cc(F)c6c5=O)c4CO)ncnc3[nH]2)cc1 please.
Reply: 7.50

Moving on to another compound below.
Query: Name the reported pIC50 value associated with the compound O=c1c2c(F)cc(C3CC3)cc2ccn1-c1cccc(-c2ncnc3[nH]c(-c4ccccc4)cc23)c1CO
Reply: 7.04

----------
studyTarget: Tyrosine-protein kinase BTK (Homo sapiens, UniProt Q06187)
method: Inhibition of BTK in human Ramos cells after 20 mins by fluorescence assay
Assay type: cell-based
measuredParameter: IC50 (nM)
A number alone suffices; assume nM.

Query: Dear colleague, I am looking for the recorded IC50 of the following compound: COc1ccc(-c2cc3c(-c4cccc(-n5ccc6cc(C7CC7)cc(F)c6c5=O)c4CO)ncnc3[nH]2)cc1
Reply: 38.8

Continuing:
Query: Quick check: IC50 of CC(=O)N1CC=C(c2cc3c(-c4cccc(-n5ccc6cc(C7CC7)cc(F)c6c5=O)c4CO)ncnc3[nH]2)CC1 ?
Reply: 21.4

Query: Would you mind doing O=C(N1CC=C(c2cc3c(-c4cccc(-n5ccc6cc(C7CC7)cc(F)c6c5=O)c4CO)ncnc3[nH]2)CC1)N1CCOCC1 as well?
Reply: 17

Query: // same read-out, input: O=c1c2c(F)cc(C3CC3)cc2ccn1-c1cccc(-c2ncnc3[nH]c(C4=CCN(c5ncccn5)CC4)cc23)c1CO
Reply: 69.7
